- assay notes: Pharmacokinetics experiments in mice
- Assay type: in vivo
- run parameters: mouse, blood, read-out: pharmacokinetic half-life / stability in vivo
reported metric: half-life

Challenge: Could you please provide reported half-life for COc1ccc(N2CCC(NC(=S)Nc3ccc(S(=O)(=O)NC4CCCCC4)cc3)C2)cc1 (stereo not shown) [RG10b] ? Thanks!
Response given: > 2 h

###

- Test system: SARS-CoV-2
- assay notes: microbe, parasite or virus in culture
- Type: cell-based
- run parameters: Severe acute respiratory syndrome coronavirus 2, Vero C1008; Vero E6 cells, CoV2 48 h (FIGS. 38 and 39)
reported metric: EC50

Challenge: Give measured EC50 for COc1ccc(N2CCC(NC(=S)Nc3ccc(S(=O)(=O)NC4CCCCC4)cc3)C2)cc1 (stereo not shown) [RG10b] (SARS-CoV-2).
Response given: < 1000 nM

Value source: patent US20240391872A1
